# Test system: TK-10 renal
# Protocol: NCI tumour cell line growth inhibition, 48 h
Test readout: TGI

CN(C(=O)C1(C(=O)C=[N+]=[N-])CC1)c1ccccc1; > 100 µM

Name the reported TGI value associated with the molecule Cc1cc(C)c(S(=O)(=O)N(CCCCN)OCCCN)c(C)c1
32 µM

Name the reported TGI value associated with the molecule C=C(CN1CCN(c2ccccc2OC)CC1)c1ccc(C(=O)Nc2ccccc2N)cc1
9.07 µM

Name the reported TGI value associated with the molecule O=C1c2ccccc2C(=O)c2c1ccc(C(Br)Br)c2[N+](=O)[O-]
3.84 µM

Name the reported TGI value associated with the molecule CN(CCc1ccc(Cl)c(Cl)c1)[C@H]1CCCC[C@H]1N1CCCC1
> 100 µM

Name the reported TGI value associated with the molecule C/C(O)=C(\C=N\C(N)=S)C(=O)Nc1ccccc1C
> 100 µM

Name the reported TGI value associated with the molecule CCOC(=O)c1nc2c3c(ncn2n1)Oc1c(c(-c2ccccc2)nn1-c1ccccc1)C3c1ccc(Cl)cc1 (stereo unspecified)
> 100 µM

Name the reported TGI value associated with the molecule C[Si](C)(C)/C=C/CCC(C=O)(CCCl)c1ccccc1 (stereo unspecified)
> 100 µM

Name the reported TGI value associated with the molecule Cl.[Pt].[c-]1ccccc1-c1ccccn1.c1ccc(P(c2ccccc2)C([PH+](c2ccccc2)c2ccccc2)[PH+](c2ccccc2)c2ccccc2)cc1
15.5 µM

Name the reported TGI value associated with the molecule COc1ccc(N2CCN(C(=O)c3ccccc3Nc3ccnc(C(F)(F)F)c3)CC2)cc1
> 100 µM

Name the reported TGI value associated with the molecule Cc1nnc2cc(C(=O)O)c3ccccc3n2c1=O
> 10 µM

Name the reported TGI value associated with the molecule Cc1ccc(C(=O)N(C(C)C)C(C)C)cc1N=NN(C)C
> 100 µM

Name the reported TGI value associated with the molecule C(=N\Nc1nnc2c(n1)[nH]c1ccccc12)/c1cccnc1
> 100 µM

Name the reported TGI value associated with the molecule C=C(C=O)C1CC(=O)C(C(=O)OC)[C@@H]2O[C@@](C)(CC2=O)C[C@@H]2OC(=O)[C@]3(O[C@@H]23)[C@@H](C(=O)OC)C1 (stereo partly specified)
42 µM

Name the reported TGI value associated with the molecule O=C(O)C(CCc1ccccn1)c1ccccc1 (stereo unspecified)
> 100 µM

---

# Test system: MDA-MB-231 breast
# Protocol: NCI tumour cell line growth inhibition, 48 h
Test readout: TGI

O=P(Oc1ccc(Cl)cc1)(Oc1ccc(Cl)cc1)N1CC1; > 10 µM

Hello, I am looking for reported TGI with MDA-MB-231 breast for Cc1ccc2c(c1)C(=O)c1c-2n(CCCN)c(=O)c2cc([N+](=O)[O-])ccc12 . Could you help?
0.827 µM

Hello, I am looking for reported TGI with MDA-MB-231 breast for COc1ccc(-c2ccc(/C=C/C(=O)NO)cc2)cc1 . Could you help?
13.4 µM

Hello, I am looking for reported TGI with MDA-MB-231 breast for c1ccc(CCN2CCCCCC2)nc1 . Could you help?
> 100 µM

Hello, I am looking for reported TGI with MDA-MB-231 breast for COC(=O)c1sc(=S)sc1SCc1ccccc1CSc1sc(=S)sc1C(=O)OC . Could you help?
> 100 µM

Hello, I am looking for reported TGI with MDA-MB-231 breast for Clc1nc(-[n+]2ccc(-c3ccncc3)cc2)nc(Nc2ccccc2)c1Cl . Could you help?
> 100 µM

Hello, I am looking for reported TGI with MDA-MB-231 breast for C=C1CCC2C3(C)COC(c4ccc(NC(C)=O)cc4)OC3CCC2(C)C1C/C=C1/C(=O)OCC1O (configuration not stated) . Could you help?
> 100 µM

Hello, I am looking for reported TGI with MDA-MB-231 breast for Nc1ccc2c(c1)C(=O)c1ccccc1-2 . Could you help?
> 100 µM

Hello, I am looking for reported TGI with MDA-MB-231 breast for N#Cc1c(Nc2ccc(F)cc2)[n+]([O-])c2ccc(Cl)cc2[n+]1[O-] . Could you help?
16.7 µM

Hello, I am looking for reported TGI with MDA-MB-231 breast for CCc1nnc(-n2c(C)nc3cc(Cl)ccc3c2=O)s1 . Could you help?
> 100 µM

Hello, I am looking for reported TGI with MDA-MB-231 breast for CCOC(=O)c1ccc(C(=O)C(C(C)=O)C(=O)OC(C)(C)C)n1C (configuration not stated) . Could you help?
> 100 µM

Hello, I am looking for reported TGI with MDA-MB-231 breast for C/C(=C/CO[Si](C)(C)C(C)(C)C)C(=O)N(C)c1ccccc1I . Could you help?
28.3 µM

Hello, I am looking for reported TGI with MDA-MB-231 breast for Cc1cc2ccccc2n1CC(=O)NCC(C)C . Could you help?
> 100 µM

Hello, I am looking for reported TGI with MDA-MB-231 breast for CC(C)(CO)CNc1nc(N)nc(Cl)c1N . Could you help?
> 100 µM

Hello, I am looking for reported TGI with MDA-MB-231 breast for C=C(C=O)C1CC(=O)C(C(=O)OC)[C@@H]2O[C@@](C)(CC2=O)C[C@@H]2OC(=O)[C@]3(O[C@@H]23)[C@@H](C(=O)OC)C1 (some centres not stated) . Could you help?
57.5 µM

---

# Test system: SW-620 colon
# Protocol: NCI tumour cell line growth inhibition, 48 h
Test readout: GI50

Nc1ncnc2c1c(C(F)(F)F)cn2[C@@H]1O[C@H](CO)[C@@H](O)[C@H]1O; 64.4 nM
COc1cc(C)c(C(=O)O[C@H]2[C@H](O[C@H]3[C@@H](O)COC(O[C@H]4C[C@H]5[C@@H]6CC=C7C[C@@H](O)CC[C@]7(C)[C@H]6CC[C@]5(C)[C@H]4[C@H](C)C(=O)CCC(C)C)[C@@H]3OC(C)=O)OC[C@@H](O)[C@@H]2O)c(C)c1 (stereo partly drawn); < 10 nM
COc1ccc(-c2ccc(/C=C/C(=O)NO)cc2)cc1; 754 nM
COc1ccc2c(c1)CCC1C2CC[C@@]2(C)C1CC[C@@]2(O)CNC(=O)/C=C/c1ccc(O)c(OC)c1 (stereo partly drawn); 58400 nM
OC(c1ccc(Cl)cc1)(c1ccc(Cl)cc1)C(O)(c1ccc(Cl)cc1)c1ccc(Cl)cc1; 3240 nM
CCN1CCN(c2nc(NNC(=O)Cc3ccccc3)nc(N3CCN(C(c4ccccc4)c4ccccc4)CC3)n2)CC1; 1870 nM
CC[C@@]1(O)C(=O)NCc2c1cc1n(c2=O)Cc2cc3ccccc3nc2-1; 3390 nM

Next:
Name the reported GI50 value associated with the compound C/C1=C\[C@H](C)C[C@H](C)OC(=O)C[C@H](c2ccc(O)cc2)NC(=O)[C@@H](Cc2c(Br)[nH]c3ccccc23)N(C)C(=O)[C@H](C)NC(=O)[C@@H](C)C1
34.7 nM

---

# System: SNB-19 CNS
# Protocol: NCI tumour cell line growth inhibition, 48 h; in the data active = GI50 below about 0.43 µM; inactive = the rest
Your reply should match one of these outcome classes. True (active), False (inactive)

O=C(NCc1cccnc1)/C(=C\c1ccc(Br)cc1)S(=O)(=O)c1ccccc1; False
C=C(C=O)C1CC(=O)C(C(=O)OC)[C@@H]2O[C@@](C)(CC2=O)C[C@@H]2OC(=O)[C@]3(O[C@@H]23)[C@@H](C(=O)OC)C1 (some centres undefined); False
CC(CN=C(CC(=O)c1ccc(Br)cc1)c1ccccc1)N=C(CC(=O)c1ccc(Br)cc1)c1ccccc1 (centres undefined); False
COc1ccc(SC2c3cc(OC)c(OC)cc3Oc3nc(N)c(C#N)c(N)c32)cc1 (centres undefined); False
COc1ccc(/C(C)=C(\c2ccc(Cl)cc2)c2ccc(OCCN3CCCC3)cc2)cc1; False

Could you check what this test reported for COc1ccc(-c2ccc(/C=C/C(=O)NO)cc2)cc1 ?
False

Could you check what this test reported for CC1(C)N=C(N)N=C(N)N1c1cccc(C#N)c1 ?
False

Could you check what this test reported for CN1/C(=C\C(I)C(I)C2=[N+](C)c3ccccc3C2(C)C)C(C)(C)c2ccccc21 (centres undefined) ?
True

Could you check what this test reported for COc1ccc(-c2ccc3c(NC(=O)C4CC4)n[nH]c3n2)cc1 ?
False

---

Reported GI50 for target or system MDA-MB-435, by entry.

COc1ccc(OC)c(-c2nc3sccn3c2/C=C2/C(=O)Nc3ccc(Cl)cc32)c1; 17.2 µM
C=C1CCC2C3(C)COC(c4ccc(NC(C)=O)cc4)OC3CCC2(C)C1C/C=C1/C(=O)OCC1O (centres undefined); 8.8 µM
CCN1CCN(c2nc(NNC(=O)Cc3ccccc3)nc(N3CCN(C(c4ccccc4)c4ccccc4)CC3)n2)CC1; 1.75 µM

Next:
Hello, I am looking for reported GI50 with MDA-MB-435 for COc1ccc2c(c1)CCC1C2CC[C@@]2(C)C1CC[C@@]2(O)CNC(=O)/C=C/c1ccc(O)c(OC)c1 (some centres undefined) . Could you help?
4.95 µM
